- measurement_protocol: Part 3 relative bioavailability (tablet vs powder-in-capsule) with food effect: plasma PK, 10 mg
- Assay type: in vivo, human
- test_settings: human, plasma, oral, 10 mg, 10 mg Tablet (Fed, high-fat), Cohort 1
parameter: AUC(0-inf) (ng·h/mL)
Express the result in ng·h/mL but write the number alone.

AUC(0-inf) in this record for CS(=O)(=O)N[C@H]1CCCN2C(=O)COc3ccccc3C3CCC(CC3)OCC12 (stereo partly shown) : 140

* * *

- measurement_protocol: Part 1 SAD: plasma pharmacokinetics after single oral dose
- Type: in vivo, human
- test_settings: human, plasma, oral; 15 mg single dose, median; read-out: Tmax
parameter: Tmax (h)
State the answer as a number, implicitly in h.

// Tmax lookup, molecule = CS(=O)(=O)N[C@H]1CCCN2C(=O)COc3ccccc3C3CCC(CC3)OCC12 (stereo partly shown) , result: 2.5

* * *

- measurement_protocol: Part 3 relative bioavailability (tablet vs powder-in-capsule) with food effect: plasma PK, 10 mg
- Format: in vivo, human
- test_settings: human, plasma, oral, 10 mg, 10 mg Capsule (Fasted), Cohort 1, N = 9
parameter: AUC(0-inf)

Value of measured AUC(0-inf) for the entry CS(=O)(=O)N[C@H]1CCCN2C(=O)COc3ccccc3C3CCC(CC3)OCC12 (stereo partly shown) : 124 ng·h/mL

* * *

- measurement_protocol: Part 5 NT2: plasma pharmacokinetics, single doses
- Format: in vivo, human
- test_settings: human, oral; 12 mg, NT2, plasma, geometric mean, n = 8; read-out: AUC0-24
parameter: AUC(0-t)

The recorded AUC(0-t) for entry CS(=O)(=O)N[C@H]1CCCN2C(=O)COc3ccccc3C3CCC(CC3)OCC12 (stereo partly shown) equals 0.185 µg·h/mL

* * *

- measurement_protocol: Part 1 SAD: plasma pharmacokinetics after single oral dose
- Assay type: in vivo, human
- test_settings: human, plasma, oral; 8 mg single dose, geometric mean, N = 4; read-out: Vz/F
parameter: Vd/F

Form field Vd/F, entry CS(=O)(=O)N[C@H]1CCCN2C(=O)COc3ccccc3C3CCC(CC3)OCC12 (stereo partly shown) : 2220 L

* * *

- measurement_protocol: Part 1 SAD: plasma pharmacokinetics after single oral dose
- Assay type: in vivo, human
- test_settings: human, plasma, oral; 1 mg single dose, geometric mean; read-out: C8 (concentration at 8-hour post dose)
parameter: concentration at 8 h (ng/mL)
Give the quantity in ng/mL, number only.

What the record says about CS(=O)(=O)N[C@H]1CCCN2C(=O)COc3ccccc3C3CCC(CC3)OCC12 (stereo partly shown) : concentration at 8 h is 0.337

* * *

- measurement_protocol: Part 3 relative bioavailability (tablet vs powder-in-capsule) with food effect: plasma PK, 10 mg
- Assay type: in vivo, human
- test_settings: human, plasma, oral, 10 mg, 10 mg Tablet (Fed, high-fat), Cohort 1, median
parameter: Tmax (h)
# unit: h | format: bare number

Entry under test: CS(=O)(=O)N[C@H]1CCCN2C(=O)COc3ccccc3C3CCC(CC3)OCC12 (stereo partly shown) . Its Tmax was 3.5

* * *

- measurement_protocol: Part 2 MAD: plasma pharmacokinetics, once daily for 10 days
- Assay type: in vivo, human
- test_settings: human, plasma, oral; 8 mg, Day 10, geometric mean; read-out: Vz/F
parameter: Vd/F (L)
A number alone suffices; assume L.

Noted for CS(=O)(=O)N[C@H]1CCCN2C(=O)COc3ccccc3C3CCC(CC3)OCC12 (stereo partly shown) : its Vd/F reads 616

* * *

- measurement_protocol: Part 2 MAD: plasma pharmacokinetics, once daily for 10 days
- Assay type: in vivo, human
- test_settings: human, plasma, oral, 25 mg, Day 1, geometric mean
parameter: Cmax (ng/mL)
Write the number in ng/mL without appending the unit.

Briefly, Cmax measured for CS(=O)(=O)N[C@H]1CCCN2C(=O)COc3ccccc3C3CCC(CC3)OCC12 (stereo partly shown) [Compound A] : 28

* * *

- measurement_protocol: Part 1 SAD: plasma pharmacokinetics after single oral dose
- Type: in vivo, human
- test_settings: human, plasma, oral; 1 mg single dose, geometric mean, N = 5
parameter: AUC(0-inf) (ng·h/mL)
Provide the reading as a plain figure in ng·h/mL.

According to the records, this compound CS(=O)(=O)N[C@H]1CCCN2C(=O)COc3ccccc3C3CCC(CC3)OCC12 (stereo partly shown) displays AUC(0-inf) of 11.6

* * *

- measurement_protocol: Part 1 SAD: plasma pharmacokinetics after single oral dose
- Format: in vivo, human
- test_settings: human, plasma, oral; 3 mg single dose, median; read-out: Tmax
parameter: Tmax (h)
# value in h; strip the unit string

For record CS(=O)(=O)N[C@H]1CCCN2C(=O)COc3ccccc3C3CCC(CC3)OCC12 (stereo partly shown) the listed Tmax is 1.5

* * *

- measurement_protocol: Part 2 MAD: plasma pharmacokinetics, once daily for 10 days
- Format: in vivo, human
- test_settings: 15 mg
parameter: Accumulation ratio (Day 10/Day 1) AUC0-24
Please respond with just the number, no unit label.

Recorded result, CS(=O)(=O)N[C@H]1CCCN2C(=O)COc3ccccc3C3CCC(CC3)OCC12 (stereo partly shown) , Accumulation ratio (Day 10/Day 1) AUC0-24: 1.23

* * *

- measurement_protocol: Part 6 IH: plasma pharmacokinetics, single doses
- Format: in vivo, human
- test_settings: human, oral; 12 mg, IH, plasma, geometric mean, n = 7; read-out: AUC0-24
parameter: AUC(0-t) (ng·h/mL)
Field format: number, assumed ng·h/mL, no unit text.

Just so you know, measured AUC(0-t) for CS(=O)(=O)N[C@H]1CCCN2C(=O)COc3ccccc3C3CCC(CC3)OCC12 (stereo partly shown) came out at 156

* * *

- measurement_protocol: Part 4 NT1: plasma pharmacokinetics, single doses
- Assay type: in vivo
- test_settings: human, oral, 3 mg, NT1, 3 mg single dose, median, N = 4, read-out: Tmax
- Procedure: Subjects were randomized to 1 of 4 sequences. Blood samples (up to 5 mL per sample) were collected for PK analysis of Compound A and its metabolite(s). The actual time of sample collection was recorded. The PK samples of the subjects randomized to placebo treatment were not analyzed. […] Plasma and urine concentrations of Compound A and its metabolite(s) were measured using a validated high-performance liquid chromatography with tandem mass spectrometry. […]
parameter: Tmax (h)
Please respond with the number in h and leave the unit unwritten.

// CS(=O)(=O)N[C@H]1CCCN2C(=O)COc3ccccc3C3CCC(CC3)OCC12 (stereo partly shown) : Tmax value = 1.5

* * *

- measurement_protocol: Part 6 IH: plasma pharmacokinetics, single doses
- Type: in vivo, human
- test_settings: human, oral; 25 mg, IH, plasma, geometric mean, N = 8; read-out: AUC0-24
parameter: AUC(0-t) (ng·h/mL)
Hi! Could you send only the number? It should be in ng·h/mL, unit omitted.

Measured AUC(0-t) of CS(=O)(=O)N[C@H]1CCCN2C(=O)COc3ccccc3C3CCC(CC3)OCC12 (stereo partly shown) [Compound A] : 230

* * *

- measurement_protocol: Part 2 MAD: plasma pharmacokinetics, once daily for 10 days
- Type: in vivo, human
- test_settings: human, plasma, oral, 8 mg, Day 10, geometric mean
parameter: half-life (h)
The reply should be a number in h, with the unit left off.

Noted for CS(=O)(=O)N[C@H]1CCCN2C(=O)COc3ccccc3C3CCC(CC3)OCC12 (stereo partly shown) [Compound A] : its half-life reads 7.66

* * *

- measurement_protocol: Part 2 MAD: plasma pharmacokinetics, once daily for 10 days
- Format: in vivo, human
- test_settings: human, plasma, oral, 3 mg, Day 1, geometric mean; read-out: AUC0-24, ss
- Procedure: Part 2 of the study is a MAD evaluation in healthy subjects consisting of 4 cohorts: Cohorts 1-4 received powder-in-capsule or matching placebo. Dose levels were as follows: Blood samples (up to 5 mL per sample) were collected for PK analysis of Compound A and its metabolite(s). The actual time of sample collection was recorded. The PK samples of the subjects randomized to placebo treatment were not analyzed. […]
parameter: AUC(0-t) (ng·h/mL)
# value in ng·h/mL; strip the unit string

Recorded AUC(0-t) (molecule CS(=O)(=O)N[C@H]1CCCN2C(=O)COc3ccccc3C3CCC(CC3)OCC12 (stereo partly shown) ): 35.5

* * *

- measurement_protocol: Part 6 IH: plasma pharmacokinetics, single doses
- Type: in vivo, human
- test_settings: human, oral; 5 mg, IH, plasma, geometric mean, n = 7
parameter: Cmax (ng/mL)
Field: numeric (ng/mL). Do not append units.

Recorded result, CS(=O)(=O)N[C@H]1CCCN2C(=O)COc3ccccc3C3CCC(CC3)OCC12 (stereo partly shown) [Compound A] , Cmax: 11.8

* * *

- measurement_protocol: Part 3 relative bioavailability (tablet vs powder-in-capsule) with food effect: plasma PK, 10 mg
- Type: in vivo, human
- test_settings: human, plasma, oral, 10 mg, 10 mg Capsule (Fasted), Cohort 1, N = 9
parameter: half-life (h)
// return numeric value only (unit: h, not printed)

CS(=O)(=O)N[C@H]1CCCN2C(=O)COc3ccccc3C3CCC(CC3)OCC12 (stereo partly shown) has a reported half-life of 10.8

Source listed as patent US20250186405A1.
